Values were extracted from patent EP3628672A1.

Reported inhibition at 25 µM values are given for each entry in this list.
- target.desc: LasB (Pseudomonas aeruginosa, UniProt P14756)
- Construct: uses as source of enzyme dialysed supernatant from P. aeruginosa PAO1; endogenous in cells; host or cells: P. aeruginosa PAO1 culture supernatant, filtered and dialysed
- Sequence (P14756 198-498): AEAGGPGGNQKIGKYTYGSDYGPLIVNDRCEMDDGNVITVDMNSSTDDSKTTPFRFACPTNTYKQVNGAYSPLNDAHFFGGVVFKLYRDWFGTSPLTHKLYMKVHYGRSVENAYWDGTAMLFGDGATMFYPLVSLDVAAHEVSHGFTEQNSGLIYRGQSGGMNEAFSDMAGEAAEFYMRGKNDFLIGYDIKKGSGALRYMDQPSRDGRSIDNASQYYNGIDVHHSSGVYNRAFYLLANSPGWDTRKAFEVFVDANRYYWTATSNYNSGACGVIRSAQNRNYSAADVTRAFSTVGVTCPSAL
- protocol.text: Elastin assay to determine % inhibition (Elastin Congo-Red, dialysed culture supernatant)
- Type: biochemical, P. aeruginosa PAO1
- measurement.conditions: read-out: Elastin hydrolysis % inhibition @ 50 / 25 µM inhibitor concentration

Example entries begin here.
CN1CCN(S(=O)(=O)c2cc(-c3csc(CNC(=O)C4(CC(=O)O)Cc5ccccc5C4)n3)ccc2OCCN2CCOCC2)CC1 [Example 132]    > 75%
CN(C)C1CN(c2ccc(-c3csc(CNC(=O)C4(CC(=O)O)Cc5ccccc5C4)n3)cc2)C1 [Example 27]    60 to 75%

Write down inhibition at 25 µM measured for item O=C(O)CC1(C(=O)NCc2nc(-c3ccccn3)cs2)Cc2ccccc2C1 [Example 9]
60 to 75%

For COc1cc(OCCc2n(C)cc[n+]2C)ccc1-c1csc(CNC(=O)C2(CC(=O)[O-])Cc3cc(F)c(F)cc3C2)n1 [Example 86] , write its inhibition at 25 µM.
60 to 75%

Return reported inhibition at 25 µM. Input compound: COc1cc(OCCC[N+]2(C)CCOCC2)ccc1-c1csc(CNC(=O)C2(CC(=O)[O-])Cc3ccccc3C2)n1 [Example 69]
10 to 60%

For the compound CN(C)CC#Cc1ccc(-c2csc(CNC(=O)C3(CC(=O)O)Cc4ccccc4C3)n2)cc1 [Example 37] , report inhibition at 25 µM.
60 to 75%

Using known records, supply inhibition at 25 µM for COc1cc(OCC(=O)N2CC[N+](C)(C)CC2)ccc1-c1csc(CNC(=O)C2(CC(=O)[O-])Cc3cc(F)c(F)cc3C2)n1 [Example 82]
60 to 75%
